Reported IC50 values for a set of compounds
Target: USP7 (Homo sapiens, UniProt Q93009)
Construct: USP7, construct USP7 (208-1102) 6*His, Viva Biotech; 6xHis (C); purchased Viva Biotech
Sequence (Q93009 208-1102): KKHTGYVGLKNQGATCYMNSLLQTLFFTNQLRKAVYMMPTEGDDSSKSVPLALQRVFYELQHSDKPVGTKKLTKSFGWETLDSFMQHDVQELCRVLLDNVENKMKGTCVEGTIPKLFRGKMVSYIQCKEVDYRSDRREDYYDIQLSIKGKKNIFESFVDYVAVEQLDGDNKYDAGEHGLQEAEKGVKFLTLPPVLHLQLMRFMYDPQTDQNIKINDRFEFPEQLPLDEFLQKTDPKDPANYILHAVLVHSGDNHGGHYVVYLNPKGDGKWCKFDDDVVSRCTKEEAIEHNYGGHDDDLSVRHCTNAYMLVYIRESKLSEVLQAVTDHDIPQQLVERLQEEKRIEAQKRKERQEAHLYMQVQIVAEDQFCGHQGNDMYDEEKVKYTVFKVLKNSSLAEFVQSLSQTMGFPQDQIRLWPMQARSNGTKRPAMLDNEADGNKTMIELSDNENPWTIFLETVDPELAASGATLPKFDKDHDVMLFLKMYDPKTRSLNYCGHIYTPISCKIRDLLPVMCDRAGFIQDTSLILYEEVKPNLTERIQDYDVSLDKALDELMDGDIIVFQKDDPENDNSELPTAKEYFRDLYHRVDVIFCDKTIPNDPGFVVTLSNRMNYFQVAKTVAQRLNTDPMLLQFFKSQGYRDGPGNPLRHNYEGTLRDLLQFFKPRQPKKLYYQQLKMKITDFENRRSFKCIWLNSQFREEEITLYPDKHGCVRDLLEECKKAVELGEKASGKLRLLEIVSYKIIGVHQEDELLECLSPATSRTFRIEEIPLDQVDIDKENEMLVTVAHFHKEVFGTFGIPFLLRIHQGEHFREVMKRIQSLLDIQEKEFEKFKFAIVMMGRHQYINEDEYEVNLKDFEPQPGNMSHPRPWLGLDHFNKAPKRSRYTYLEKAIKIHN
Assay: USP7 Assay A (Ubitquin-Rhodamine 110 Assay)
Format: biochemical
Conditions: USP7 assay A and B (table does not say which assay per compound); read-out: USP7_IC50

Reference set, count: 6
{"compound": "C[C@H](CC(=O)N1CCC(O)(Cn2cnc3c(cnn3-c3ccccn3)c2=O)CC1)c1ccccc1", "assay_system": "USP7 (Homo sapiens, UniProt Q93009)", "IC50": "200 to 1000 nM"}
{"compound": "CN(C)CCOc1ccc(-c2ccc(-n3ncc4c(=O)n(CC5(O)CCN(C(=O)C6CC6)CC5)cnc43)cc2)cc1", "assay_system": "USP7 (Homo sapiens, UniProt Q93009)", "IC50": "1000 to 10000 nM"}
{"compound": "COc1ccc(C(=O)N2CCC(O)(C(C)n3cnc4c(cnn4-c4ccc(F)cc4)c3=O)CC2)cc1 (stereo not shown) [Compound I-614]", "assay_system": "USP7 (Homo sapiens, UniProt Q93009)", "IC50": "> 10000 nM"}
{"compound": "C[S+]([O-])c1ccc(-n2ncc3c(=O)n(CC4(O)CCN(C(=O)c5ccc(F)cc5)CC4)cnc32)cc1 (single isomer, unassigned) [Compound I-996]", "assay_system": "USP7 (Homo sapiens, UniProt Q93009)", "IC50": "1000 to 10000 nM"}
{"compound": "CNC(=O)Nc1cccc(-n2ncc3c(=O)n(CC4(O)CCN(C(=O)C5CC5)CC4)cnc32)c1", "assay_system": "USP7 (Homo sapiens, UniProt Q93009)", "IC50": "1000 to 10000 nM"}
{"compound": "C[C@@H](CC(=O)N1CCC(O)(Cn2cnc3c(cnn3-c3ccc(F)cc3)c2=O)CC1)n1cc2c(n1)CCC2 (single isomer, unassigned)", "assay_system": "USP7 (Homo sapiens, UniProt Q93009)", "IC50": "> 10000 nM"}

IC50 recorded for this compound, `Cc1cc(C(=O)N2CCC(O)(Cn3cnc4c(cnn4-c4ccccc4)c3=O)CC2)ccc1Cl` , is 200 to 1000 nM

Ref: patent US9902728B2
